Tested on: 653999-131-R-J2-PDC complex spheroids, growth % test/control;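 also: spheroids exposed to agents for seven days; 100% = DMSO vehicle control viability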
procedure_text: Anticancer human tumor 653999-131-R-J2-PDC patient-derived lung adenocarcinoma cell line growth inhibition [AhR]
experimental_context: second compound 10 µM; first compound 0.316 µM; stronger effect = lower value
measured_quantity: viability, T/C (%)
API: value field is a number in %; no unit string.

Below, 5 molecules whose answers are already recorded.
molecule	viability, T/C [%]
CC1(C)CCC(CN2CCN(c3ccc(C(=O)NS(=O)(=O)c4ccc(NCC5CCOCC5)c([N+](=O)[O-])c4)c(Oc4cnc5[nH]ccc5c4)c3)CC2)=C(c2ccc(Cl)cc2)C1 + Cc1cncc(-c2nc(NCCc3c[nH]c4ccccc34)c3ncn(C(C)C)c3n2)c1	59.5
COc1ccc([C@@H](O)c2cc(-c3ncnc4cc(N5CCOCC5)ccc34)c(F)cc2Cl)nn1 + Cc1cncc(-c2nc(NCCc3c[nH]c4ccccc34)c3ncn(C(C)C)c3n2)c1	66.2
CC1(C)CCC(CN2CCN(c3ccc(C(=O)NS(=O)(=O)c4ccc(NCC5CCOCC5)c([N+](=O)[O-])c4)c(Oc4cnc5[nH]ccc5c4)c3)CC2)=C(c2ccc(Cl)cc2)C1 + CC(CO)NC(=O)c1cc(-c2ccc(Cl)cc2)nn(-c2cnn(C)c2)c1=O	111
COc1ccc([C@@H](O)c2cc(-c3ncnc4cc(N5CCOCC5)ccc34)c(F)cc2Cl)nn1 + CC(CO)NC(=O)c1cc(-c2ccc(Cl)cc2)nn(-c2cnn(C)c2)c1=O	90.8
O=C(c1cc(Cc2n[nH]c(=O)c3ccccc23)ccc1F)N1CCN(C(=O)C2CC2)CC1 + CC(CO)NC(=O)c1cc(-c2ccc(Cl)cc2)nn(-c2cnn(C)c2)c1=O	82.9

Short answer please: viability, T/C, 653999-131-R-J2-PDC complex spheroids, growth % test/control, entry Nc1ncn(C2CC(O)C(CO)O2)c(=O)n1 (stereo not drawn) + Cc1cncc(-c2nc(NCCc3c[nH]c4ccccc34)c3ncn(C(C)C)c3n2)c1
49.2

Short answer please: viability, T/C, 653999-131-R-J2-PDC complex spheroids, growth % test/control, entry COc1cccc2c1C(=O)c1c(O)c3c(c(O)c1C2=O)CC(O)(C(=O)CO)CC3OC1CC(N)C(O)C(C)O1 (stereo not drawn) + CC(CO)NC(=O)c1cc(-c2ccc(Cl)cc2)nn(-c2cnn(C)c2)c1=O
31.8

Short answer please: viability, T/C, 653999-131-R-J2-PDC complex spheroids, growth % test/control, entry O=C(C=Cc1cccc(S(=O)(=O)Nc2ccccc2)c1)NO + CC(CO)NC(=O)c1cc(-c2ccc(Cl)cc2)nn(-c2cnn(C)c2)c1=O
105

Short answer please: viability, T/C, 653999-131-R-J2-PDC complex spheroids, growth % test/control, entry O=C(c1cc(Cc2n[nH]c(=O)c3ccccc23)ccc1F)N1CCN(C(=O)C2CC2)CC1 + Cc1cncc(-c2nc(NCCc3c[nH]c4ccccc34)c3ncn(C(C)C)c3n2)c1
55.1

Short answer please: viability, T/C, 653999-131-R-J2-PDC complex spheroids, growth % test/control, entry O=C(C=Cc1cccc(S(=O)(=O)Nc2ccccc2)c1)NO + Cc1ccccc1N=Nc1ccc(NC(=O)c2ccnn2C)c(C)c1
76.7

Short answer please: viability, T/C, 653999-131-R-J2-PDC complex spheroids, growth % test/control, entry Nc1ccn(C2OC(CO)C(O)C2(F)F)c(=O)n1 (stereo not drawn) + Cc1cncc(-c2nc(NCCc3c[nH]c4ccccc34)c3ncn(C(C)C)c3n2)c1
42.4

Short answer please: viability, T/C, 653999-131-R-J2-PDC complex spheroids, growth % test/control, entry O=C(c1cc(Cc2n[nH]c(=O)c3ccccc23)ccc1F)N1CCN(C(=O)C2CC2)CC1 + Cc1ccccc1N=Nc1ccc(NC(=O)c2ccnn2C)c(C)c1
87

Short answer please: viability, T/C, 653999-131-R-J2-PDC complex spheroids, growth % test/control, entry CC1COCCN1c1cc(-c2ccnn2C)c2ccnc(-c3ccn[nH]3)c2n1 (stereo not drawn) + Cc1ccccc1N=Nc1ccc(NC(=O)c2ccnn2C)c(C)c1
49.8

Reference source: PubChem BioAssay AID1919000
